- protocol: Acute toxicity for oral administration in mice
- Format: in vivo
- experimental.parameters: mouse, in vivo, po, suspension in 10% gum arabic
- Method: 1--ACUTE TOXICITY FOR ORAL ADMINISTRATION IN MICE The compounds are administered orally in increasing doses in suspension in a 10% gum arabic solution to groups of 5 .female. mice of mean weight 25 g. The 50% lethal doses (LD 50) are calculated by the method of KARBER and BEHRENS (Arch. Exp. Path. Pharmakol. 1935, 177, 379-388). The LD 50's found are summarised in Table IV below and indicate that the tested compounds have low toxicity.
measure.name: LD50 (mg/kg)
Numbers only here, please. The scale is mg/kg.

Recorded LD50, per entry:
[[record]]
compound_string = "CCN(CC)C(=O)Nc1cc(OC)c(OC)c(OC)c1"
uom = "mg/kg"
endpoint_result = 3000

[[record]]
compound_string = "COc1cc(NC(=O)N2CCCO2)cc(OC)c1OC"
uom = "mg/kg"
endpoint_result = 1250


Moving on to another compound below.
Field request: LD50 | item: COc1cc(N(CCN2CCOCC2)C(=O)N2CCOCC2)cc(OC)c1OC 5000
